Values were extracted from ChEMBL document CHEMBL1146387.

Provide the recorded MIC for the entries that follow.
Tested on: Enterococcus faecium
Assay: Antibacterial activity against vancomycin-resistant Enterococcus faecium VRA
Assay type: functional
Please answer using a numeric value trailed by its unit.

Looking up Cc1cccc(C(c2[nH]c3ccccc3c2CCOC(=O)c2ccccc2)c2c(O)c3ccccc3oc2=O)c1 (centres undefined) , I see its MIC listed as 4 µg/mL

Looking up Cn1c(=O)c(C(c2ccc(C(F)(F)F)cc2)c2[nH]c3ccccc3c2CCNC(=O)c2ccccc2)c(O)c2ccccc21 (centres undefined) , I see its MIC listed as 16 µg/mL

Looking up O=C(OCCc1c(C(c2cccc(F)c2)c2c(O)c3ccccc3oc2=O)[nH]c2ccccc12)c1ccccc1 (centres undefined) , I see its MIC listed as 8 µg/mL

Looking up CC(=O)OCCc1c(C(c2cccc(Br)c2)c2c(O)c3ccccc3oc2=O)[nH]c2ccccc12 (centres undefined) , I see its MIC listed as 32 µg/mL

---

System: Enterococcus faecium
Assay: Antibacterial activity against vancomycin-resistant Enterococcus faecium VRA
Type: functional
Reported property: MIC (µg/mL)
Note: unit µg/mL is implicit; provide only the numeric part.

Looking up Cn1c(=O)c(C(c2ccc(C(F)(F)F)cc2)c2[nH]c3ccccc3c2CCOC(=O)C2CCCCC2)c(O)c2ccccc21 (centres undefined) , I see its MIC listed as 1

Looking up CC(=O)OCCc1c(C(c2cccc(Br)c2)c2c(O)c3ccccc3n(C)c2=O)[nH]c2ccccc12 (centres undefined) , I see its MIC listed as 32

Looking up Cn1c(=O)c(C(c2ccc(C(F)(F)F)cc2)c2[nH]c3ccccc3c2CCNS(=O)(=O)c2ccccc2)c(O)c2ccccc21 (centres undefined) , I see its MIC listed as 2

Looking up Cn1c(=O)c(C(c2ccc(OC(F)(F)F)cc2)c2[nH]c3ccccc3c2CCOC(=O)Cc2ccccc2)c(O)c2ccccc21 (centres undefined) , I see its MIC listed as 2

---

Tested on: Enterococcus faecium
Assay: Antibacterial activity against vancomycin-resistant Enterococcus faecium VRA
Type: functional
Provide the recorded MIC for the entries that follow.

Looking up CC(=O)NCCc1c(C(c2cccc(Br)c2)c2c(O)c3ccccc3oc2=O)[nH]c2ccccc12 (stereo unspecified) , I see its MIC listed as > 128 µg/mL

Looking up O=C(OCCc1c(C(c2ccc(C(F)(F)F)cc2)c2c(O)c3ccccc3oc2=O)[nH]c2ccccc12)c1ccccc1 (stereo unspecified) , I see its MIC listed as 2 µg/mL

Looking up COc1ccccc1C(=O)NCCc1c(C(c2cccc(Br)c2)c2c(O)c3ccccc3oc2=O)[nH]c2ccccc12 (stereo unspecified) , I see its MIC listed as 32 µg/mL

Looking up O=C(OCCc1c(C(c2cccc(C(F)(F)F)c2)c2c(O)c3ccccc3oc2=O)[nH]c2ccccc12)c1ccccc1 (stereo unspecified) , I see its MIC listed as 1 µg/mL

Looking up CN[C@H](CC(C)C)C(=O)N[C@H]1C(=O)N[C@@H](CC(N)=O)C(=O)N[C@H]2C(=O)N[C@H]3C(=O)N[C@H](C(=O)N[C@H](C(=O)O)c4cc(O)cc(O)c4-c4cc3ccc4O)[C@H](O)c3ccc(c(Cl)c3)Oc3cc2cc(c3O[C@@H]2O[C@H](CO)[C@@H](O)[C@H](O)[C@H]2O[C@H]2C[C@](C)(N)[C@H](O)[C@H](C)O2)Oc2ccc(cc2Cl)[C@H]1O , I see its MIC listed as > 128 µg/mL

Looking up CSc1ccc(C(c2[nH]c3ccccc3c2CCOC(=O)c2ccccc2)c2c(O)c3ccccc3oc2=O)cc1 (stereo unspecified) , I see its MIC listed as 4 µg/mL
